target-under-test: T1, TBD-22 (HC D109A)
T1 construct: Fab; also called HC D109A mutant
T1 sequence (VH, as listed by the source, chain 1 of 2): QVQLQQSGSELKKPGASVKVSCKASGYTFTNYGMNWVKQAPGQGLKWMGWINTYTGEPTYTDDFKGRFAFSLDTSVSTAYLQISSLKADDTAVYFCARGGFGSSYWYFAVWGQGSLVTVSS
T1 sequence (VL, as listed by the source, chain 2 of 2): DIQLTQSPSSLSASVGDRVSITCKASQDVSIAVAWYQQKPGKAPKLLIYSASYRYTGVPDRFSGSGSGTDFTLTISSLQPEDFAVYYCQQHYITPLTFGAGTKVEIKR
protocol-notes: competition ELISA, peptide vs Fab binding to captured biotin-TROP2
Where no end group is shown, it is not given here.
// values below are reported log10(IC50)
// stored as log10 of IC50 expressed in nM

Qu. Look up log10(IC50) for this binder: PDFCAVYRWPICYQ (cysteine pairing not given here; also: biotinylated, site not given here) [Peptide-64]
Ans. 2.08

Others:
Qu. Look up log10(IC50) for this binder: VDFCGLYHWPICYQVD (cysteine pairing not given here; also: biotinylated, site not given here) [Peptide-39]
Ans. 2.15

Qu. Try this binder too: VDFCGLYHWPICYQ (cysteine pairing not given here; also: biotinylated, site not given here) [Peptide-8]
Ans. 1.90

Qu. Try this binder too: IDFCLIYNWPVCDT (cysteine pairing not given here; also: biotinylated, site not given here) [Peptide-63]
Ans. 2.04

Qu. Try this binder too: VDFCSIYHWPVCYV (cysteine pairing not given here; also: biotinylated, site not given here) [Peptide-38]
Ans. 2.23

Qu. Try this binder too: VDFCYLYSWPICTK (cysteine pairing not given here; also: biotinylated, site not given here) [Peptide-40]
Ans. 2.76

Qu. Try this binder too: PDFCYMYNWPVCVT (cysteine pairing not given here; also: biotinylated, site not given here) [Peptide-33]
Ans. 2.52

Qu. Try this binder too: VDFCGLYHWPICYQVY (cysteine pairing not given here; also: biotinylated, site not given here) [Peptide-41]
Ans. 2.04

Qu. Try this binder too: VDFCYQYGWPICSR (cysteine pairing not given here; also: biotinylated, site not given here) [Peptide-36]
Ans. 3.24
